target_under_test: human (h) TRPV3 (Homo sapiens, UniProt Q8NET8)
Construct: expressed in transfected cells; host or cells: HEK293/TREx, tetracycline-induced
Sequence (Q8NET8 1-790): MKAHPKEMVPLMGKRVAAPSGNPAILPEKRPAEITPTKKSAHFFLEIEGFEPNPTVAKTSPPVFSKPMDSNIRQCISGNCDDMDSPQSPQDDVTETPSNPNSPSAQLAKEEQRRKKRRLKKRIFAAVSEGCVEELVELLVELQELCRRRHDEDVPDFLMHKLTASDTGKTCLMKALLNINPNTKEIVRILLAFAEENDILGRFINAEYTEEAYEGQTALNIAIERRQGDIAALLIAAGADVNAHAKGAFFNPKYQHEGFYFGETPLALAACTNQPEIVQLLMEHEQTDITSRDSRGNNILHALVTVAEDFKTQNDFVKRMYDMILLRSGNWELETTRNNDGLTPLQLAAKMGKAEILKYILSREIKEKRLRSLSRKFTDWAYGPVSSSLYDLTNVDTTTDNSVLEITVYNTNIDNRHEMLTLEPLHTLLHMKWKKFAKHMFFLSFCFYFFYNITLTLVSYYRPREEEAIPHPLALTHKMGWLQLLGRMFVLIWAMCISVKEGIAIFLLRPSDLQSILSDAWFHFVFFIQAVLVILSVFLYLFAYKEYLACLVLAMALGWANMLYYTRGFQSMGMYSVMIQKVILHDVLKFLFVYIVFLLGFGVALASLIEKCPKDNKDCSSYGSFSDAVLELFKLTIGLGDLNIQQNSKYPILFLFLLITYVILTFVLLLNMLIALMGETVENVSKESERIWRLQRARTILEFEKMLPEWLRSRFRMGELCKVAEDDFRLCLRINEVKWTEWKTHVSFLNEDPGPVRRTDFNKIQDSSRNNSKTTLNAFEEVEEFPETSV
experimental_protocol: Whole-cell patch clamp, human TRPV3-mediated currents;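 further: compounds tested at concentrations up to 30 µM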
Format: cell-based
assay_setup: Phase 1 inward current, read-out: P1 In (h)
pIC50: −log10 of the molar value.
readout_type: pIC50

- CCOc1nccc(/C=C/c2nc3ccccc3c(=O)n2-c2ccccc2C)c1O: ≥ 6.30
- Cc1ccccc1-n1c(-c2ccoc2)nc2ccccc2c1=O: ≥ 5.00
- COc1ccnc(/C=C/c2nc3ccccc3c(=O)n2-c2c(C)cccc2C)c1O: ≥ 5.00

Ask | Please report the recorded pIC50 for CCOc1cccc(C=Cc2nc3cnccc3c(=O)n2-c2ccccc2C)c1O .
Reply | ≥ 6.30

Ask | Moving on to the next compound: Cc1ccccc1-n1c(/C=C/c2nnn[nH]2)nc2ccccc2c1=O
Reply | < 5.00
